System: bedstraw
Experiment: Test B pre/postemergence bedstraw
Assay type: in vivo, Galium aparine
Settings: Preemergence, Rate 500 g/ha; scale 0 (no effect) to 10 (complete control)
Method: […] At the same time, these crop and weed species were also treated with postemergence applications of test chemicals formulated in the same manner. […] Treated plants and controls were maintained in a greenhouse for twelve to sixteen days, after which all species were compared to controls and visually evaluated. […]
Would you kindly list Bedstraw plant response rating for each of these compounds?
Answer with a bare number; do not write a unit.

Recorded Bedstraw plant response rating for Cc1ccccc1-n1c(=O)on(C(=O)N(c2ccc(C(F)(F)F)cc2)C(C)C)c1=O , please?
0

What measured Bedstraw plant response rating goes with CCc1cccc(C)c1-n1c(=O)on(C(=O)N(c2ccc(F)cc2)C(C)C)c1=O ?
0

Quick check: Bedstraw plant response rating of CCCn1c(=O)on(C(=O)N(c2ccc(F)cc2)C(C)C)c1=O ?
8

Query: Bedstraw plant response rating; subject: Cc1ccccc1-n1c(=O)on(C(=O)N(c2cc(F)cc(F)c2)C(C)C)c1=O
0

Which Bedstraw plant response rating reading was recorded for the compound COc1cccc(C)c1-n1c(=O)on(C(=O)N(c2ccc(F)cc2F)C(C)C)c1=O ?
0

Given the entry Cc1cccc(C)c1-n1c(=O)on(C(=O)N(c2ccc(Cl)cc2)C(C)C)c1=O , report its measured Bedstraw plant response rating.
0

---

tested on: soybean; assay: Test B pre/postemergence soybean; assay type: in vivo, Glycine max; conditions: Preemergence, Rate 250 g/ha; scale 0 to 10, 0 is no effect, 10 is complete control
So I've got a bunch of molecules here, and I need their Soybean plant response rating values.
Give the figure by itself; no unit, no explanation.

Soybean plant response rating lookup needed for CSc1ccc(N(C(=O)n2oc(=O)n(-c3ccccc3C)c2=O)C(C)C)cc1 , thanks.
0

Look at this molecule and give its reported Soybean plant response rating. C=C(C)CCn1c(=O)on(C(=O)N(c2ccc(F)cc2)C(C)C)c1=O
0

# query: Soybean plant response rating of entry Cc1ccccc1-n1c(=O)on(C(=O)N(c2ccc(Cl)cc2Cl)C(C)C)c1=O
0

So what does the record say about Soybean plant response rating for CC(C)c1noc(C(C)C)c1-n1c(=O)on(C(=O)N(c2ccc(F)cc2)C(C)C)c1=O ?
0

Sample CC(C)N(C(=O)n1oc(=O)n(Cc2ccco2)c1=O)c1ccc(F)cc1F — what was its Soybean plant response rating?
0

Which Soybean plant response rating is reported for this molecule? Cc1nc(C)c(Cn2c(=O)on(C(=O)N(c3ccc(F)cc3)C(C)C)c2=O)s1
2

---

Field: Blackgrass plant response rating. Provide a value for each of the compounds that follow.
system: blackgrass; experiment: Test B pre/postemergence blackgrass; format: in vivo, Alopecurus myosuroides; conditions: Rate 125 g/ha, Postemergence; scale 0 to 10, 0 is no effect, 10 is complete control
Hey, just send me the number, nothing else.

Hello, I am looking for reported Blackgrass plant response rating with blackgrass for CC(=O)NCn1c(=O)on(C(=O)N(c2ccc(F)cc2)C(C)C)c1=O . Could you help?
0

Quick check: Blackgrass plant response rating on blackgrass, item CC(C)N(C(=O)n1oc(=O)n(C(C)Cl)c1=O)c1ccccc1 (stereo not shown) ?
0

Record CC(C)N(C(=O)n1oc(=O)n(CCCl)c1=O)c1ccccc1 : what is its Blackgrass plant response rating with blackgrass?
7

Provide the documented Blackgrass plant response rating with blackgrass as the system for Cc1nc(C)c(C(C)n2c(=O)on(C(=O)N(c3ccccc3)C(C)C)c2=O)s1 (stereo not shown)
0

---

test system: bedstraw; assay: Test B pre/postemergence bedstraw; format: in vivo, Galium aparine; conditions: Preemergence, Rate 250 g/ha; scale of 0 to 10 where 0 is no effect and 10 is complete control
quantity_kind: Plant response rating, Bedstraw

Query for bedstraw: what Plant response rating, Bedstraw does the record show for CC(C)N(C(=O)n1oc(=O)n(C(C)(C)C)c1=O)c1ccc(Cl)cc1 ?
0

Record lookup: for bedstraw, what Plant response rating, Bedstraw belongs to Cc1cccc(Cl)c1-n1c(=O)on(C(=O)N(c2ccc(Cl)cc2)C(C)C)c1=O ?
0

Short answer please: Plant response rating, Bedstraw, bedstraw, entry COc1cccc(C)c1-n1c(=O)on(C(=O)N(c2ccc(F)cc2F)C(C)C)c1=O
0

Reported Plant response rating, Bedstraw for bedstraw, given CCN(CC)C(=O)n1oc(=O)n(Cc2cccs2)c1=O ?
0

Lab note: need Plant response rating, Bedstraw for Cc1nn(C)c(Cl)c1-n1c(=O)on(C(=O)N(c2ccccc2)C(C)C)c1=O on bedstraw, anyone have it?
2

// map Cc1cccc(C)c1-n1c(=O)on(C(=O)N(c2ccc(F)cc2)C(C)C)c1=O to recorded Plant response rating, Bedstraw (system: bedstraw)
0

---

system: surinam grass; assay: Test B pre/postemergence surinam grass; assay type: in vivo, Brachiaria decumbens; conditions: Preemergence, Rate 125 g/ha; scale 0 to 10, 0 is no effect, 10 is complete control
quantity_kind: B. signalgrass plant response rating
The answer should be a number; do not append a unit.

What is its B. signalgrass plant response rating for surinam grass? Entry: CC(C)N(C(=O)n1oc(=O)n(CCC2OCCCO2)c1=O)c1ccccc1
4

Identify the measured B. signalgrass plant response rating of CC(C)N(C(=O)n1oc(=O)n(C(C)C(=O)c2ccccc2)c1=O)c1ccc(F)cc1F (centres unmarked) for surinam grass.
0

Lab note: need B. signalgrass plant response rating with surinam grass for entry CC(C)N(C(=O)n1oc(=O)n(CCNC(=O)CCl)c1=O)c1ccccc1 , please look it up.
0

Hi! What's the reported B. signalgrass plant response rating for CC(C)N(C(=O)n1oc(=O)n(C[Si](C)(C)C)c1=O)c1ccccc1 on surinam grass?
3

Look up B. signalgrass plant response rating with surinam grass for this compound: CC(C)N(C(=O)n1oc(=O)n(CCCC(F)(F)F)c1=O)c1ccc(F)cc1F
9

---

test system: blackgrass; assay: Test E blackgrass; assay type: in vivo, Alopecurus myosuroides; details: Preemergence, Rate 250 g/ha; 0 to 100 scale
Exercise: for every item that follows, state its recorded Plant response rating, Blackgrass.
Write no unit; give the number alone.

// returns reported Plant response rating, Blackgrass for input CC(C)N(C(=O)n1oc(=O)n(C(C)C)c1=O)c1ccc(Cl)cc1 [Compound 114]
50

Need Plant response rating, Blackgrass of CC1CC1n1c(=O)on(C(=O)N(c2ccc(Cl)cc2)C(C)C)c1=O (stereo not shown) [Compound 369] , thanks.
85

Value lookup for Plant response rating, Blackgrass; key = Cc1cccc(C)c1-n1c(=O)on(C(=O)N(c2ccc(F)cc2)C(C)C)c1=O [Compound 18]
10

Any idea what its Plant response rating, Blackgrass is? The molecule is CC(C)N(C(=O)n1oc(=O)n(C2CCOCC2)c1=O)c1ccc(F)cc1 [Compound 310]
85

Query: Plant response rating, Blackgrass; subject: COC(Cn1c(=O)on(C(=O)N(c2ccc(F)cc2)C(C)C)c1=O)OC [Compound 317]
100

Need Plant response rating, Blackgrass, item CC(C)N(C(=O)n1oc(=O)n(CCC#N)c1=O)c1ccc(F)cc1 [Compound 388]
0

Item under review: Cc1ccccc1-n1c(=O)on(C(=O)N(c2cc(F)cc(F)c2)C(C)C)c1=O [Compound 67] . Reported Plant response rating, Blackgrass?
10

---

For each entry below, report its B. signalgrass plant response rating value.
test system: surinam grass; test: Test B pre/postemergence surinam grass; format: in vivo, Brachiaria decumbens; settings: Postemergence, Rate 125 g/ha; scale of 0 to 10 where 0 is no effect and 10 is complete control

May I ask what B. signalgrass plant response rating has been recorded for CC(C)N(C(=O)n1oc(=O)n(Cc2ccccc2Cl)c1=O)c1ccc(F)cc1 ?
0

Entry C#CCn1c(=O)on(C(=O)N(c2ccccc2)C(C)C)c1=O has what B. signalgrass plant response rating?
2

Tell me the measured B. signalgrass plant response rating of CC(C)N(C(=O)n1oc(=O)n(CCCCCl)c1=O)c1ccccc1 , please.
0

Need B. signalgrass plant response rating of CC(C)N(C(=O)n1oc(=O)n(C[C@H](C)Cl)c1=O)c1ccc(Cl)cc1 , thanks.
2

What does the record list as B. signalgrass plant response rating for CC(C)N(C(=O)n1oc(=O)n(CCN(C)C(=O)c2ccccc2)c1=O)c1ccc(F)cc1F ?
0

Could you tell me which B. signalgrass plant response rating is on file for COC(=O)C(CCO)n1c(=O)on(C(=O)N(c2ccc(F)cc2)C(C)C)c1=O (centres unmarked) ?
0

For the compound CON=CC(C)n1c(=O)on(C(=O)N(c2ccccc2)C(C)C)c1=O (centres unmarked) , what B. signalgrass plant response rating is on record?
6

Any idea what B. signalgrass plant response rating was measured for Cc1nc(C(C)n2c(=O)on(C(=O)N(c3ccc(F)cc3)C(C)C)c2=O)sc1C (centres unmarked) ?
0

What does the record list as B. signalgrass plant response rating for CC(C)N(C(=O)n1oc(=O)n(CCCCl)c1=O)c1ccc(Cl)cc1 ?
2

B. signalgrass plant response rating lookup needed for CC(C)N(C(=O)n1oc(=O)n(CC(F)F)c1=O)c1ccc(F)cc1 , thanks.
5

Would you kindly share the measured B. signalgrass plant response rating for CC(C)N(C(=O)n1oc(=O)n(-c2ccnn2C)c1=O)c1ccc(F)cc1 ?
0

Values from patent US6737383B1
